Assay system: Photo optimized trastuzumab; meditope enabled (Tmab)
Sequence (chain, as listed by the source, chain 1 of 2): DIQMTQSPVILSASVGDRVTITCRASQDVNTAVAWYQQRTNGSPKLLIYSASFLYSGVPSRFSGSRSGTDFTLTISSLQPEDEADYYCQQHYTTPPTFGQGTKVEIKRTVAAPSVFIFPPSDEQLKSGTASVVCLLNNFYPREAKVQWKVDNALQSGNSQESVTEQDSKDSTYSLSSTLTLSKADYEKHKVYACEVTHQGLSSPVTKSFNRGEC
Sequence (chain, as listed by the source, chain 2 of 2): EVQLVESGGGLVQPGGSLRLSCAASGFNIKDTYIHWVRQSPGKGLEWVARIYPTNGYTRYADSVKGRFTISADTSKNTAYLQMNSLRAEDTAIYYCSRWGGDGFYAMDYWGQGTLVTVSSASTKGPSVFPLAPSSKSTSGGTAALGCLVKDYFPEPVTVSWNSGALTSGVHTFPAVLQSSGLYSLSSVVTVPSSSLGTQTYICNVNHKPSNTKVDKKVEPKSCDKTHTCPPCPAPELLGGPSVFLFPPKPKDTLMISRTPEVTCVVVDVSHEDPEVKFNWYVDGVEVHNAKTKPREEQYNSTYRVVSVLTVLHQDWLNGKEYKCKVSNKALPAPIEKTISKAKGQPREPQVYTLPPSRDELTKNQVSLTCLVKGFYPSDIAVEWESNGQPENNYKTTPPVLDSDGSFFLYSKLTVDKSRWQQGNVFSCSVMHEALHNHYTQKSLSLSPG
Assay overview: BLI Octet, antibody on anti-human Fc tip, peptide 333 nM
Quantity name: pKd
Please note pKd is a logarithmic value: minus log10 of concentration in mol/L. Answer with that number alone.

Q: Form field: reported pKd of CQFDLSTRRLRC (modifications not checked) [Peptide 22: DM1 conjugated cQFD (cQFD-DM1)]
Result: 8.79

All figures here come from patent US20190111149A1.
